target_entity: PI3Kalpha (PI3Ka) (Homo sapiens, UniProt P42336)
Construct: endogenous in cells; host or cells: cell lysate
Sequence (P42336 whole entry): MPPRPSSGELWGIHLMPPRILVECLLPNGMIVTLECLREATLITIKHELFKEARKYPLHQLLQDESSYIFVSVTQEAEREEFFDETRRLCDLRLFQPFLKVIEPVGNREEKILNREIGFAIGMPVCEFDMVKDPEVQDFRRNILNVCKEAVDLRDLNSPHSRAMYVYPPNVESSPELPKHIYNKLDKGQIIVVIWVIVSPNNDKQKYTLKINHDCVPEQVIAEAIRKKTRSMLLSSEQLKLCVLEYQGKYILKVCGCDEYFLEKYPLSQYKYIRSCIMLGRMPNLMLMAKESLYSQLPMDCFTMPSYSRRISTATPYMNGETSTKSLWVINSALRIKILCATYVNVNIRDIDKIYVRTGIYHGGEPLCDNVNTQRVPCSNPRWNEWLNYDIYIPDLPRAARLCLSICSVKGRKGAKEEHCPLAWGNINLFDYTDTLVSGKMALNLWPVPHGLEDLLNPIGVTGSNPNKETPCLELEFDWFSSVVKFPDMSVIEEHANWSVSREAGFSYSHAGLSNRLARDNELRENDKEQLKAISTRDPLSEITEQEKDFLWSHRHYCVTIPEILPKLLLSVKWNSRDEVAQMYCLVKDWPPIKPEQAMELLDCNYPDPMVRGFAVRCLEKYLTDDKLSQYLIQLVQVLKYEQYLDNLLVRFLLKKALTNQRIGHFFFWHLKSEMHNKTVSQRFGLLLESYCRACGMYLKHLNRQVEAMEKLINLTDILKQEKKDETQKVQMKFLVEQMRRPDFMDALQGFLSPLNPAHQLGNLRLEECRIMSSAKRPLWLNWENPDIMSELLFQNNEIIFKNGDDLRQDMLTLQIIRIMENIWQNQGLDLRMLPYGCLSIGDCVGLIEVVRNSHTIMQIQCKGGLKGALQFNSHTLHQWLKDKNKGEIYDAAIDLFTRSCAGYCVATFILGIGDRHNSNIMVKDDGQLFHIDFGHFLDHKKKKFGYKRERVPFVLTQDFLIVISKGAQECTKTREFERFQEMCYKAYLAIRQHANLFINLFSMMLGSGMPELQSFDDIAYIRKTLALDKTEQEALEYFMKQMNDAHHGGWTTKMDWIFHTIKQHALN
Sequence (P27986 whole entry partner): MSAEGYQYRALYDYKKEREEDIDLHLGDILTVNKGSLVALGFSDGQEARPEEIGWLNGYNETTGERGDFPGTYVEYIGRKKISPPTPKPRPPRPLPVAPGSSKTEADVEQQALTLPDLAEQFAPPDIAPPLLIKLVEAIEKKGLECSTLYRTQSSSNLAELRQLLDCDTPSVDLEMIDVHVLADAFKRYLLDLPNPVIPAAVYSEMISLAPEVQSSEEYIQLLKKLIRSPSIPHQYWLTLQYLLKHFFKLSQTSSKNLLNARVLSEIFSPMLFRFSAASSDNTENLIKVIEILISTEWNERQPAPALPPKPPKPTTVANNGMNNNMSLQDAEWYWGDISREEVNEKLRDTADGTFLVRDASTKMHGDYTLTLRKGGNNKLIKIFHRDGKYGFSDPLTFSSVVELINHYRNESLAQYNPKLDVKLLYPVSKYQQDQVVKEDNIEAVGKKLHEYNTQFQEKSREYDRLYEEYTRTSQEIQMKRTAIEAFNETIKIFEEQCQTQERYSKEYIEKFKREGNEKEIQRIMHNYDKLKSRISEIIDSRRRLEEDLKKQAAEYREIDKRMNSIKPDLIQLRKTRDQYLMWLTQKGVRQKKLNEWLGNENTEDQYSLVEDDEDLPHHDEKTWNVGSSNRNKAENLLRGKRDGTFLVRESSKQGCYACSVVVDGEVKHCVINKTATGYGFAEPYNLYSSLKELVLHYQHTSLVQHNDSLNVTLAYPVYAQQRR
measurement_protocol: kinobeads assay, PI3Kalpha
Type: binding
measurement_conditions: kinobeads assay, Table 6; read-out: Inhibition values (IC50) PI3Ka
Experimental: The kinobeads assay was performed as a competitive binding assay in which test compounds were added directly into a cell lysate. […] Bound proteins were then eluted and the presence of kinases was detected and quantified using a multiplexed immunodetection format. Dose response curves for individual kinases were generated and IC50 values calculated. […]
pIC50: −log10 of the molar value.
pIC50 listing for selected compounds.

Illustrative cases are given below, each with its answer.
>  <mol_smiles>
C[C@H]1COCCN1c1nc(-c2ccc(NC(=O)Nc3cccc(O)n3)cc2)nc2c1CN(C)C2

>  <target_entity>
PI3Kalpha (PI3Ka) (Homo sapiens, UniProt P42336)

>  <readout_value>
5.00 to 6.00

$$$$
>  <mol_smiles>
CCNC(=O)Nc1ccc(-c2nc3c(c(N4CCOCC4)n2)CCN(C(=O)NCC)C3)cc1

>  <target_entity>
PI3Kalpha (PI3Ka) (Homo sapiens, UniProt P42336)

>  <readout_value>
5.00 to 6.00

$$$$
>  <mol_smiles>
C[C@H]1COCCN1c1nc(-c2ccc(NC(=O)NC3CC3)cc2)nc2c1CN(CC1CCNCC1)C2

>  <target_entity>
PI3Kalpha (PI3Ka) (Homo sapiens, UniProt P42336)

>  <readout_value>
5.00 to 6.00

$$$$
>  <mol_smiles>
CCNC(=O)Nc1ccc(-c2nc3c(c(N4CCOCC4)n2)CN(C(=O)C(C)(C)C)C3)cc1

>  <target_entity>
PI3Kalpha (PI3Ka) (Homo sapiens, UniProt P42336)

>  <readout_value>
5.00 to 6.00

$$$$
>  <mol_smiles>
C[C@H]1COCCN1c1nc(-c2ccc(NC(N)=O)cc2)nc2c1CN(C)C2

>  <target_entity>
PI3Kalpha (PI3Ka) (Homo sapiens, UniProt P42336)

>  <readout_value>
5.00 to 6.00

$$$$
>  <mol_smiles>
CC(=O)NCCCC(=O)N1Cc2nc(-c3ccc(NC(=O)NC4CC4)cc3)nc(N3CCOC[C@@H]3C)c2C1

>  <target_entity>
PI3Kalpha (PI3Ka) (Homo sapiens, UniProt P42336)

>  <readout_value>
5.00 to 6.00

$$$$
>  <mol_smiles>
CCNC(=O)Nc1ccc(-c2nc3c(c(N4CCOCC4)n2)CN(C(C)=O)C3)cc1

>  <target_entity>
PI3Kalpha (PI3Ka) (Homo sapiens, UniProt P42336)

>  <readout_value>
5.00 to 6.00

$$$$
>  <mol_smiles>
C[C@H]1COCCN1c1nc(-c2ccc(NC(=O)NC3CC3)cc2)nc2c1CN(C(=O)CCC(N)=O)C2

>  <target_entity>
PI3Kalpha (PI3Ka) (Homo sapiens, UniProt P42336)

>  <readout_value>
5.00 to 6.00

$$$$

Which value of pIC50 has been reported for CCNC(=O)Nc1ccc(-c2nc3c(c(N4CCOCC4)n2)CN(C)C3)cc1 in the records?
5.00 to 6.00

Please look up its pIC50: C[C@H]1COCCN1c1nc(-c2ccc(NC(=O)NCCO)cc2)nc2c1CN(C)C2
5.00 to 6.00

Query: pIC50; subject: C[C@H]1COCCN1c1nc(-c2ccc(NC(=O)NC3CC3)cc2)nc2c1CN(CCCC(=O)O)C2
5.00 to 6.00

Reported pIC50, compound CCNC(=O)Nc1ccc(-c2nc3c(c(N4CCOC[C@@H]4C)n2)CN(C(=O)C(C)C)C3)cc1 : ____
5.00 to 6.00

I'd like to know its pIC50. The compound in question is CCNC(=O)Nc1ccc(-c2nc3c(c(N4CCOCC4)n2)CCN(C(C)=O)C3)cc1
5.00 to 6.00
